Would you kindly list pKd for each of these binders?
TARGET_OF_ASSAY: human alpha-synuclein monomer (human, UniProt P37840 1-140)
ASSAY_NOTES: SPR (Biacore 8K), IgG captured on anti-human Fc, aSyn monomer injected
Just the number, please; pKd means minus log10 of the concentration in mol/L.

Look up pKd for this binder: HC3_LC4 (antibody, V domains shown, humanized 20H4 IgG) VH: EVQLVESGGGLVQPGGSLRLSCAASGFTFSNAAMYWVRQAPGKGLELVSRIRTKPNNYATYHADSVKGRFTISRDNSKNTVYLQMNSLRAEDTAVYYCTADMATGDYWGQGTLVTVSS VL: EIVMTQSPATLSLSPGERATLSCKASQNINKNLDWYQQKPGQAPRLLIYSTNNLQTGIPARFSGSGSGTDFTLTISSLQPEDFAVYYCYQYKSAWTFGQGTKVEIK
8.04

Please answer likewise for HC5_LC3 (antibody, V domains shown, humanized 20H4 IgG) VH: EVQLVESGGGLVQPGGSLRLSCAASGFTFSNAAMYWVRQAPGKGLELLARIRTKPNNYATYHADSVKGRFTISRDDSKNTVYLQMNSLRAEDTAVYYCTADMATGDYWGQGTLVTVSS VL: DIQMTQSPSSLSASVGDRVTITCKASQNINKNLDWYQQKPGKAPKPLIYSTNNLQTGVPSRFSGSGSGTDYTLTISSLQPEDFATYYCYQYKSAWTFGQGTKVEIK
8.29
